assay: in vitro; conditions: human
assayMetric: CC50

INSERT INTO results (structureassmiles, val) VALUES
  ('Cc1ccc2c(nc3s/c(=C/c4ccc(-c5ccc(C(=O)O)cc5)o4)c(=O)n32)c1C', '> 50 µM');

## Task Quick one: CC50 for O=C(O)c1ccc(Cl)c(-c2ccc(/C=c3/sc4nc5ccccc5n4c3=O)o2)c1 ?
## Result > 50 µM

## Task Quick one: CC50 for Cc1cc2nc3s/c(=C/c4ccc(-c5cccc(C(=O)O)c5)o4)c(=O)n3c2cc1C ?
## Result ≥ 50 µM

## Task Quick one: CC50 for Cc1cc(C)c2nc3s/c(=C\c4ccc(-c5ccc(Cl)c(C(=O)O)c5)o4)c(=O)n3c2c1 ?
## Result ~50 µM

## Task Quick one: CC50 for Cc1cc2nc3s/c(=C\c4ccc(-c5ccc(OC(F)(F)F)cc5)o4)c(=O)n3c2cc1C ?
## Result > 50 µM

## Task Quick one: CC50 for Cc1cc2nc3s/c(=C\c4ccc(-c5ccc6c(c5)COC6=O)o4)c(=O)n3c2cc1C ?
## Result > 50 µM

## Task Quick one: CC50 for Cc1cc2nc3s/c(=C/c4ccc(-c5ccccc5C(=O)O)o4)c(=O)n3c2cc1C ?
## Result > 50 µM

## Task Quick one: CC50 for Cc1ccc(-c2ccc(/C=c3/sc4nc5ccccc5n4c3=O)o2)cc1Cl ?
## Result > 50 µM

###

test: in vitro; conditions: human, Caco-2, pH 7.4
assayMetric: Papp A→B (×10⁻⁶ cm/s)
Hi! Could you send only the number? It should be in ×10⁻⁶ cm/s, unit omitted.

## Task Quick one: Papp A→B for Cc1cc2nc3s/c(=C/c4ccc(-c5cccc(C(=O)O)c5)o4)c(=O)n3c2cc1C ?
## Result 0.00242

###

assay: in vitro; details: human
Reported CC50 values follow for various molecules

## Task Quick one: CC50 for Cc1cc(C)c2nc3s/c(=C\c4ccc(-c5ccc(Cl)c(C(=O)O)c5)o4)c(=O)n3c2c1 ?
## Result > 50 µM

## Task Quick one: CC50 for Cc1ccc2nc3s/c(=C/c4coc(-c5ccc(Cl)c(C(=O)O)c5)c4)c(=O)n3c2c1 ?
## Result > 50 µM

## Task Quick one: CC50 for O=C(O)c1cc(-c2ccc(/C=c3\sc4nc(=O)c5c6c(sc5n4c3=O)CCCC6)o2)ccc1Cl ?
## Result > 50 µM

## Task Quick one: CC50 for Cc1cc2nc3s/c(=C/c4ccc(-c5cccc(C(=O)O)c5)o4)c(=O)n3c2cc1C ?
## Result 50 µM

###

biological target: CYP1A2 (Homo sapiens)
Sequence (P05177 whole entry): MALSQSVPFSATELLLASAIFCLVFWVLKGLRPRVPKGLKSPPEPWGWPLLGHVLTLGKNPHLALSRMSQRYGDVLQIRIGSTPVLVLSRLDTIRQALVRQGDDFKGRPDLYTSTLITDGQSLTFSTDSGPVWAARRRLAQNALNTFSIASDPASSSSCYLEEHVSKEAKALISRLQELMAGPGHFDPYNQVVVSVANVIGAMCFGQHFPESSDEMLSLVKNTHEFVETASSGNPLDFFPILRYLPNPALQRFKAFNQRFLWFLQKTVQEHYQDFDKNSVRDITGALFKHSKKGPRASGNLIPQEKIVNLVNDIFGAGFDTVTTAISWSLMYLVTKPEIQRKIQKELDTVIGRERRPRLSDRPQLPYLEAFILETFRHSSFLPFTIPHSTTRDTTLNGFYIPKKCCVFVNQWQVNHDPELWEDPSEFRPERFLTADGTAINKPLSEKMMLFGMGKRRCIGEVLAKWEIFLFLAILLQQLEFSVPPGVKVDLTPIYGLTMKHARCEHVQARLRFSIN
pIC50: −log10 of the molar value.
assayMetric: pIC50

## Task Quick one: pIC50 for Cc1cc2nc3s/c(=C/c4ccc(-c5cccc(C(=O)O)c5)o4)c(=O)n3c2cc1C [NBCoV63] ?
## Result < 4.60

###

biological target: UniProt:P33261
Sequence (P33261 whole entry): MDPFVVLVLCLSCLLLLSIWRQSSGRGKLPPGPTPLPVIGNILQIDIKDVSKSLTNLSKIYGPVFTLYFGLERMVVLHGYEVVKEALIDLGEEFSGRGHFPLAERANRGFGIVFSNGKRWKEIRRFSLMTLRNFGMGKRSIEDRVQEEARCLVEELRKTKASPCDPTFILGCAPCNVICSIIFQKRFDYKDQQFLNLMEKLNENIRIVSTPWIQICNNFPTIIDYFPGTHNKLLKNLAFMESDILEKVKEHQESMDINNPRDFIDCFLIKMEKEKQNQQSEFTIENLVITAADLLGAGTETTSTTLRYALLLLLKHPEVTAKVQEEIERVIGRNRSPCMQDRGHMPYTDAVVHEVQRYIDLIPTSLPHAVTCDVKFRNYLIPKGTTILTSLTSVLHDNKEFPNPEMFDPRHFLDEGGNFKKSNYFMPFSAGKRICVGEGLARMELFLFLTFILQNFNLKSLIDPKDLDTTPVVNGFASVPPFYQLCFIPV
pIC50: −log10 of the molar value.
assayMetric: pIC50

## Task Please tell me: pIC50 of Cc1cc2nc3s/c(=C/c4ccc(-c5cccc(C(=O)O)c5)o4)c(=O)n3c2cc1C [NBCoV63] , system UniProt:P33261?
## Result < 4.60
